- system.name: LPAAT-β (Homo sapiens, UniProt O15120)
- Sequence (O15120 24-278): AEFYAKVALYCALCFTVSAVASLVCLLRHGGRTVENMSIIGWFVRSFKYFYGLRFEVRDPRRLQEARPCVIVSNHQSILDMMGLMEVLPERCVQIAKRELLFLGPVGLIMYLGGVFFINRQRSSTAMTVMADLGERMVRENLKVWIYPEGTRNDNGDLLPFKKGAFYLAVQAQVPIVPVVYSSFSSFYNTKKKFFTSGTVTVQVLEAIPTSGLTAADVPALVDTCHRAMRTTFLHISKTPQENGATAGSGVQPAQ
- assay: secondary thin layer chromatography (TLC) assay measuring fluorescent PA
- Assay type: biochemical
- Parameters: The assay utilizes full-length, recombinant, baculovirus-produced LPAAT-β; made in house
value.kind: IC50

Sample answers from the record:
molecule: NC(=S)NN=Cc1cccc(-c2ccccc2)c1O [Compound 6m]
endpoint.result: > 10 µM
--
molecule: C=CCc1cc(-c2ccc(Cl)c(Cl)c2)cc(C(C)=NNC(N)=S)c1O [Compound 19s]
endpoint.result: 2.4 µM
--
molecule: Cc1cccc(C=NNC(N)=S)c1O [Compound 6h]
endpoint.result: > 10 µM
--
molecule: CCc1cccc(C=NNC(N)=S)c1O [Compound 6j]
endpoint.result: 48 µM
--
molecule: CCCCCCCc1cccc(C=NNC(N)=S)c1O [Compound 6q]
endpoint.result: 9.7 µM

Now consider a different molecule.
Looking up CCOc1cccc(C=NNC(N)=S)c1O [Compound 6d] , I found its IC50 recorded as > 10 µM
